Cited source for all entries: patent US20050064507A1

Target: PKC-zeta (Homo sapiens)
Construct: purchased Calbiochem
Sequence (Q05513 1-592): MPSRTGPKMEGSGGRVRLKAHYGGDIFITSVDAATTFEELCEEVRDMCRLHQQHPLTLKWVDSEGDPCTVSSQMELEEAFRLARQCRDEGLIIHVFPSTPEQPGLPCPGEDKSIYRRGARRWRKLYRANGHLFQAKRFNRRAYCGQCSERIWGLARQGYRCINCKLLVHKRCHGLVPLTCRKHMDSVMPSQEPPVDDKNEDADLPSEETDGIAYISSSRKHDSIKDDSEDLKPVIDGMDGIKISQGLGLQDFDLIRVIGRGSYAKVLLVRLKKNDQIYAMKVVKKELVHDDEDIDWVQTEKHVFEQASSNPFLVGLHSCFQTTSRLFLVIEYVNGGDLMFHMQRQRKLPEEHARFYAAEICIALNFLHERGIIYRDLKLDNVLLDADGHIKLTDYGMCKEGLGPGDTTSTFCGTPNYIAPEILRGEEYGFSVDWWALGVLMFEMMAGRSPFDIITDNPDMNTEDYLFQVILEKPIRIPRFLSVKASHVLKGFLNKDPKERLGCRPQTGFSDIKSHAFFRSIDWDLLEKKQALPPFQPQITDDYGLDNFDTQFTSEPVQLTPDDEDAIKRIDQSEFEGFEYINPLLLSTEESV
Experiment: In vitro kinase assay: peptide phosphorylation by PKC-zeta
Type: biochemical
Settings: peptide concentration 10 uM
Here, each record is paired with measured phosphorylation by PKC zeta data.
API note: the answer field is a bare number with no unit suffix.

Worked examples, 10 substances total:
{"columns": ["Substance", "phosphorylation by PKC zeta"],
 "data": [
  ["158 (VQMTWSYPDEKNKRASVRRR) [compound 158]", 72],
  ["157 (PSPSNETPKKKKKRFSFKKS) [compound 157]", 6],
  ["166 (MAQIERGEARIQRRISIKKA) [compound 166]", 9],
  ["147 (RDIRQSPKRGFLRSASLGRR) [compound 147]", 34],
  ["143 (VRYTPYTISPYNRKGSFRKQ) [compound 143]", 79],
  ["148 (RELEQLKAEYLERRASRRRA) [compound 148]", 20],
  ["142 (ERHVAQKKSRLRRRASQLKI) [compound 142]", 37],
  ["149 (RVVQSVKHTKRKSSTVMK) [compound 149]", 5],
  ["126 (KAIKAIEGGQKFARKSTRRS) [compound 126]", 56],
  ["132 (GFLNEPLSSKSQRRKSLKLK) [compound 132]", 61]
]}

What value of measured phosphorylation by PKC zeta is listed for 114 (KKKKRASFKRKSSKKG) [compound 114] ?
51

Repeat with 139 (RPTPGDGEKRSRIKKSKKRK) [compound 139]
1

Same read-out for 122 (RAITSTLASSFKRRR) [compound 122] ?
17

Try the substance 137 (PSKSPSKKKKKFRTPSFLKK) [compound 137]
5

Quick one: 136 (RARRDSLKKIEIW) [compound 136]
9
